Source listed as paper PMC3454511.

test: Bidirectional Caco-2 permeability; assay type: in vitro ADME; conditions: human, Caco-2
Note to self: use label 1 only for Papp B→A readings below 30 ×10⁻⁶ cm/s; a reading exactly at 30 ×10⁻⁶ cm/s still gets label 0.

{"columns": ["compound", "class"],
 "data": [
  ["CCCN1[C@@H]2COc3ccccc3[C@@H]2[C@@H]1CNS(C)(=O)=O [32b]", "label 0"],
  ["CCCN1[C@H](CO)[C@H](c2ccccc2)C12CN(C)C2 [30b]", "label 0"],
  ["CCCN1[C@@H]2COc3ccccc3[C@@H]2[C@@H]1CNC(=O)c1ccccc1 [32a]", "label 0"],
  ["CN1CC(=O)N2[C@H](CO)[C@H](c3ccccc3)[C@@H]2C1 [28a]", "label 0"],
  ["CCCN1C2CNCC1C2c1ccccc1 (stereo not drawn) [27a]", "label 1"],
  ["CCCN1C2CN(S(C)(=O)=O)CC1C2c1ccccc1 (stereo not drawn) [27c]", "label 0"],
  ["OC[C@@H]1[C@H](c2ccc(Br)cc2)[C@@H]2CNCCCCN12 [29a]", "label 0"],
  ["CCCN1[C@H](CO)[C@H](c2ccccc2)C12CN(C(C)=O)C2 [30c]", "label 0"],
  ["OC[C@@H]1[C@H](c2ccccc2)[C@@H]2CNCCCCN12 [29b]", "label 1"]
]}

###

assay: BBB parallel artificial membrane permeability assay; assay type: in vitro ADME; details: PAMPA
Mark False for Papp values under 10 ×10⁻⁶ cm/s, and True for everything at or above.

{"columns": ["compound", "class"],
 "data": [
  ["CCCN1C2CNCC1C2c1ccccc1 (stereo not drawn) [27a]", "False"],
  ["OC[C@@H]1[C@H](c2ccccc2)[C@@H]2CNCCCCN12 [29b]", "False"],
  ["CCCN1C2CN(S(C)(=O)=O)CC1C2c1ccccc1 (stereo not drawn) [27c]", "True"],
  ["CN1CCCCN2[C@H](CO)[C@H](c3ccccc3)[C@@H]2C1 [29c]", "False"],
  ["CCCN1C2CN(Cc3ccc(F)cc3)CC1C2c1ccccc1 (stereo not drawn) [27d]", "True"],
  ["OC[C@@H]1[C@H](c2ccc(Br)cc2)[C@@H]2CNCCCCN12 [29a]", "True"]
]}

###

experiment: Microsomal stability, mouse; details: % parent remaining at 1 hour
Note to self: use yes (1) only for microsomal stability mouse readings below 90 % remaining; a reading exactly at 90 % remaining still gets no (0).

{"columns": ["molecule", "class"],
 "data": [
  ["CCCN1[C@H](CO)[C@H](c2ccccc2)C12CN(C)C2 [30b]", "no (0)"],
  ["CCCN1C2CN(S(C)(=O)=O)CC1C2c1ccccc1 (stereo not drawn) [27c]", "yes (1)"],
  ["CCCN1C(CO)C2c3ccccc3N(C(C)=O)CC21 (racemic) [31b]", "yes (1)"],
  ["CCCN1[C@H](CO)[C@H](c2ccccc2)C12CNC2 [30a]", "no (0)"],
  ["CN1CC(=O)N2[C@H](CO)[C@H](c3ccccc3)[C@@H]2C1 [28a]", "no (0)"],
  ["CCCN1[C@H](CO)[C@H](c2ccccc2)[C@@H]1CN [26b]", "yes (1)"],
  ["OC[C@@H]1[C@H](c2ccc(Br)cc2)[C@@H]2CNCCCCN12 [29a]", "no (0)"],
  ["CCCN1C2CNCC1C2c1ccccc1 (stereo not drawn) [27a]", "yes (1)"]
]}
